# Tested on: HEK-293T
# assay-details: Multiplex assay against HEK293T
# Type: toxicity, cell-based
# condition-context: human, 48 h, 10 µM, compound concentration 10 uM, replicate 2
Criterion: Population Healthy Nuclei (%) strictly less than 80%. Met: yes. Not met: no.

Example results:
>  <compound>
O=C1[C@H](Cc2ccc(O)cc2)N2C(=O)CCN(C(=O)NCc3ccccc3)[C@H]2CN1Cc1cccc2ccccc12

>  <assigned-label>
yes

$$$$
>  <compound>
Cl.NCCc1ccc(O)c(O)c1 [DOPAMINE HYDROCHLORIDE]

>  <assigned-label>
no

$$$$

Prompt: # check: Population Healthy Nuclei (%) < 80% for CC(C)(C)c1cc(NC(=O)Nc2ccc(-c3cn4c(n3)sc3cc(OCCN5CCOCC5)ccc34)cc2)no1
Response: yes

Prompt: Same question for COc1cccc2c1c(NS(=O)(=O)c1ccc(Cl)s1)nn2Cc1cccc(CNC(=O)C(C)(C)O)c1 please.
Response: no

Prompt: Same question for CN(C)C(=O)Cn1cc(-c2ccc(-c3cncc4ccccc34)cc2)cn1 please.
Response: yes

Prompt: Same question for N#Cc1cc(F)cc(-c2nc(-c3ccc(F)cn3)no2)c1 please.
Response: yes

Prompt: Same question for Cc1cnc(-c2cc(N3CCN(C(=O)CCS(C)(=O)=O)CC3)ncc2Cl)c(C)c1 please.
Response: yes
